system: KM-20L2; experiment: NCI tumour cell line growth inhibition, 48 h
Active and inactive are the calls of the source. No stated cut-off is given here; in the data, active = GI50 up to about 1.1 µM and inactive = higher.
Give your call using only these classes: active, inactive

Solved entries (count: 6):
compound: CCOc1ccccc1NC(=O)C(=O)CC(=O)c1c(C)[n+]([O-])c2ccccc2[n+]1[O-]
label value: inactive

compound: CCC1CCc2c(c(=O)oc3c2cc(OC)c2cccc(OC)c23)C1 (configuration not stated)
label value: inactive

compound: CC12CCC3=C(CSC4=C3CSc3ccccc34)C1=CCCC2=O (configuration not stated)
label value: inactive

compound: O=C(Nc1ccn(CCO)c(=O)n1)c1ccccc1
label value: inactive

compound: COc1ccc2ccccc2c1C1=NC(C)(C)CO1
label value: inactive

compound: C=C1C(=O)O[C@@H]2C[C@@H](C)[C@@H]3C=CC(=O)[C@@]3(C)[C@@H](OC(=O)CC(=O)O[C@H]3[C@@H]4C(=C)C(=O)O[C@@H]4C[C@@H](C)[C@@H]4C=CC(=O)[C@]43C)[C@H]12
label value: active

Attention now turns to another entry.
Outcome? CC1CC2C3CC(F)C4=CC(=O)C=CC4(C)C3(F)C(O)CC2(C)C1(O)C(=O)CO (configuration not stated)
inactive

Reference source: ChEMBL document CHEMBL1201862
